Cited source: the supplement of paper PMC7411054

system: A549-TUBA1B-RELA; experiment: lowest phenotypically active concentration; higher = less potent; settings: treatment time: 24 h
So I've got a bunch of compounds here, and I need their lowest phenotypically active concentration values.

Here are 2 compounds together with their reported answers.
INSERT INTO results (compound, test_value) VALUES
  ('CC(=O)O[C@H]1C(=O)[C@@]2(C)[C@H]([C@H](OC(=O)c3ccccc3)[C@]3(O)C[C@H](OC(=O)[C@H](O)[C@@H](NC(=O)c4ccccc4)c4ccccc4)C(C)=C1C3(C)C)[C@]1(OC(C)=O)CO[C@@H]1C[C@@H]2O [paclitaxel]', '≤ 0.3 µM'),
  ('CCCNCC(O)COc1ccccc1C(=O)CCc1ccccc1 (configuration not stated) [propafenone]', '9 µM');

For each of the items listed, what is its lowest phenotypically active concentration?
1. Cc1cc(C)cc(C(=O)NOCCCCCC(=O)NO)c1
2. Cc1c(NC(=O)OC[C@@H]2COCCN2)cn2ncnc(Nc3ccc4c(cnn4Cc4cccc(F)c4)c3)c12
3. Cc1c(O)cccc1C(=O)N[C@@H](CSc1ccccc1)[C@H](O)CN1C[C@H]2CCCC[C@H]2C[C@H]1C(=O)NC(C)(C)C [nelfinavir]
4. CC(C)n1c(/C=C/[C@@H](O)C[C@@H](O)CC(=O)O)c(-c2ccc(F)cc2)c2ccccc21.CC(C)n1c(/C=C/[C@H](O)C[C@H](O)CC(=O)O)c(-c2ccc(F)cc2)c2ccccc21 [Fluvastatin sodium]
5. CC1(C)O[C@@H]2C[C@H]3[C@@H]4C[C@H](F)C5=CC(=O)C=C[C@]5(C)[C@@]4(F)[C@@H](O)C[C@]3(C)[C@]2(C(=O)CO)O1 [fluocinolone acetonide]

["≤ 0.3 µM", "1 µM", "9 µM", "9 µM", "≤ 0.3 µM"]

###

test system: HepG2-TUBA1B-RELA; assay: phenotypically active (imaging signature differs from DMSO and reproducible) at any of 0.3-9 uM (binary (1 = active, 0 = inactive)); higher = active; details: treatment time: 24 h
Where a name gives a salt, the structure may show the parent alone.
Valid outcomes are listed here; reply with one: t (active), f (inactive)

Please review the entries below; each comes with its answer.
INSERT INTO assay_data (compound, label_value) VALUES
  ('C=C1CC[C@@H]2[C@](C)(CO)[C@H](O)CC[C@@]2(C)[C@@H]1C/C=C1/C(=O)OC[C@H]1O [Andrographolide]', 't'),
  ('CCCS(=O)(=O)Nc1ccc(F)c(C(=O)c2c[nH]c3ncc(Cl)cc23)c1F', 't'),
  ('S=C(S)N1CCCC1 [Pyrrolidinedithiocarbamate ammonium]', 't'),
  ('Nc1ncnc(Nc2ccc(OCc3ccccc3)c(Cl)c2)c1/C=N/OCCN1CCOCC1', 't'),
  ('N=C(N)Nc1nc(CSCCC(=N)NS(N)(=O)=O)cs1', 'f');

// param item: `COC(=O)c1ccc(N2CCN(C)CC2)c(NC(=O)c2cccc(OC)c2)c1` ; yields the recorded call
f

Check the results log: what was the call for `CCCSc1nc2c(c(=O)n1-c1ccccc1)SCC2` ?
f

What did this assay record as the result for `CC(C)c1nc(CN(C)C(=O)N[C@H](C(=O)N[C@@H](Cc2ccccc2)C[C@H](O)[C@H](Cc2ccccc2)NC(=O)OCc2cncs2)C(C)C)cs1` ?
f

Any idea what this test logged for `COc1ccc(C(=O)Nc2sc3c(c2C(N)=O)CCCC3)cc1OC` ?
f

Assay outcome for O=C1CN2Cc3c(ccc(Cl)c3Cl)N=C2N1 [Anagrelide hydrochloride] : what was it?
f

Which result was noted for this compound in the test: CC1CCC(C(C)C)C(O)C1 (stereo not drawn)
f

# lookup: test call for CC(C)C(=O)Nc1ccc([N+](=O)[O-])c(C(F)(F)F)c1 [flutamide]
f
